Assay read-out IC50; system under study: ATX (human His-tagged) (Homo sapiens (Human), UniProt Q13822).

Here's what some known entries look like.
{"molecule": "COc1cc(Cl)cc(/C=C/C(=O)N2C[C@@H]3CN(C(=O)c4ccc5[nH]nnc5c4)C[C@H]3C2)c1 [Example 15.49]", "IC50": "16 nM"}
{"molecule": "CC(=O)c1ccccc1OCC(=O)N1C[C@@H]2CN(C(=O)c3ccc4[nH]nnc4c3)C[C@H]2C1 [Example 19.04]", "IC50": "1710 nM"}
{"molecule": "O=C(OCc1cc(Cl)cc(Cl)c1)N1C[C@H]2C[C@@H](Oc3ccc4[nH]c(=O)oc4c3)C[C@H]2C1 [Example 3.01]", "IC50": "1090 nM"}
{"molecule": "COCCOc1ncc(C(=O)N2C[C@@H]3CN(C(=O)c4ccc5[nH]nnc5c4)C[C@H]3C2)cc1Br [Example 19.40]", "IC50": "100 nM"}
{"molecule": "CC(C)c1cc(C#N)ccc1OCC(=O)N1C[C@@H]2CN(C(=O)c3ccc4[nH]nnc4c3)C[C@H]2C1 [Example 19.03]", "IC50": "8 nM"}

Record NS(=O)(=O)C1CCN(C(=O)N2C[C@H]3CN(C(=O)OCc4ccc(OC(F)(F)F)cc4)C[C@@H]3C2)CC1 [Example 9.10] : what is its IC50 with ATX (human His-tagged) (Homo sapiens (Human), UniProt Q13822)?
7 nM

Fill in the recorded IC50 for this molecule, with ATX (human His-tagged) (Homo sapiens (Human), UniProt Q13822) as test system: N#Cc1ccc(/C=C/C(=O)N2C[C@@H]3CN(C(=O)c4ccc5[nH]nnc5c4)C[C@H]3C2)cc1 [Example 15.23]
32 nM
